Ref: patent US12617777B2

# Assayed System: human GPR84 receptor (Homo sapiens)
# Sequence (Q9NQS5 whole entry): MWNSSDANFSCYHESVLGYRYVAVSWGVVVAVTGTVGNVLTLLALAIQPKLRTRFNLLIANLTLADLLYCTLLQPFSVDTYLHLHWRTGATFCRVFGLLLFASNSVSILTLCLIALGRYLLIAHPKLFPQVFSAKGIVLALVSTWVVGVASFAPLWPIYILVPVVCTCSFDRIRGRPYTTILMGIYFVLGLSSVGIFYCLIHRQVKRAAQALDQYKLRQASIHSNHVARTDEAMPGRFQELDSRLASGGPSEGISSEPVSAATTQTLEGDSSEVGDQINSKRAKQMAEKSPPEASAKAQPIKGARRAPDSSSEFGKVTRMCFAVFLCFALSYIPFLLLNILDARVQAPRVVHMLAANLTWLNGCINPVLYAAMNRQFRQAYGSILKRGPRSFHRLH
# Assay Comment: Gαi biosensor BRET assay in HEK293 cells (antagonism of ZQ-16)
# Conditions: HEK293 cells, antagonism of 200 nmol/L ZQ-16
pIC50: −log10 of the molar value.
Catalogue of pIC50 values

Molecule	pIC50
CC1(C)COC(Cn2cc(-c3ncc(C#CC4CC4)cc3CC(F)(F)F)nn2)OC1	≥ 6.52
Cc1cc(N2CC(C)(Nc3ccccc3)C2)ccc1-c1cn(CC2CCCCO2)nn1 (stereo not shown)	6.00 to 6.52
Cc1cc(C#CC2CC(F)(F)C2)ccc1-c1cn(CC2OCC(C)(C)CO2)nn1	< 5.52
CCc1cc(C#CCNc2ccccc2)cnc1-c1cn(CC2CC(C)(C)CO2)nn1 (stereo not shown)	6.00 to 6.52
CC(C)Oc1cc(C#CCN2CC(C)(C)C2)cnc1-c1cn(CC2OCC(C)(C)CO2)nn1	≥ 6.52
CN(C)c1cc(N2CC(C)(CO)C2)ccc1-c1cn(CC2CC(C)(C)CO2)nn1 (stereo not shown)	6.00 to 6.52
CC1(C)COC(Cn2cc(-c3ncc(C#CCNCc4ccccn4)cc3OC3CC3)nn2)OC1	≥ 6.52
